study target: T1, human CD19 (human, UniProt P15391 20-556)
T1 construct: CD19 as expressed on Raji, NALM-6 and SU-DHL-6 cells; also called CD19 antigen; B-cell surface antigen B4
T1 sequence: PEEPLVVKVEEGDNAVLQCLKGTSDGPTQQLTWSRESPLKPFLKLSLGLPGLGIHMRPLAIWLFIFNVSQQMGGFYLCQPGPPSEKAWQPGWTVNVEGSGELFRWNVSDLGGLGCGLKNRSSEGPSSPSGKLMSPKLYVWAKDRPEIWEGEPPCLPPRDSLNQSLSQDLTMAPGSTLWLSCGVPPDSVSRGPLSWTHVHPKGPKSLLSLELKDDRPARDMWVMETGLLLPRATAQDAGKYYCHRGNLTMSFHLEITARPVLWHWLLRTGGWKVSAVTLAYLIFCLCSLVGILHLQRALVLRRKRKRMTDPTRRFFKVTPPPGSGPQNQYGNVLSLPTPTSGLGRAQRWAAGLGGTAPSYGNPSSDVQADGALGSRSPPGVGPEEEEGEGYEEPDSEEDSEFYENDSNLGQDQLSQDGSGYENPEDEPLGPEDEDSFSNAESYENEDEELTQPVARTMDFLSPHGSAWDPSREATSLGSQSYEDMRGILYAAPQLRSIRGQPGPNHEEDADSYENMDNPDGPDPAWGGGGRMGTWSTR
method description: flow cytometry, NALM-6 cells, MPF vs chimeric FMC63
endpoint label: relative MPF (% of chimeric FMC63) (%)
Answers are plain numbers, in %.

1. VH16-F67L/VL43-P44V (antibody, human IgG1, name in Kabat numbering, V domains shown, substitutions in Kabat numbering) VH: QVQLVQSGGGVVQPGRSLRLSCAASGVSLPDYGVSWVRQAPGKGLEWVAVIWGSETTYYNSALKSRLTISRDNSKNTLYLQMNSLRAEDTAVYYCARHYYYGGSYAMDYWGQGTLVTVSS VL: DIVMTQTPSSLSASVGDRVTITCRASQDISKYLNWYQQKPGKAVKLLIYHTSRLHSGVPSRFSGSGSGTDFTLTISSLQPEDFATYYCQQGNTLPYTFGPGTKVDIKR; 2.37

Report relative MPF (% of chimeric FMC63) for each item below.
1. VH16/VL43-P44V (antibody, human IgG1, V domains shown, substitutions in Kabat numbering) VH: QVQLVQSGGGVVQPGRSLRLSCAASGVSLPDYGVSWVRQAPGKGLEWVAVIWGSETTYYNSALKSRFTISRDNSKNTLYLQMNSLRAEDTAVYYCARHYYYGGSYAMDYWGQGTLVTVSS VL: DIVMTQTPSSLSASVGDRVTITCRASQDISKYLNWYQQKPGKAVKLLIYHTSRLHSGVPSRFSGSGSGTDFTLTISSLQPEDFATYYCQQGNTLPYTFGPGTKVDIKR
2. VH16-G42R/VL43-Y87F (antibody, human IgG1, name in Kabat numbering, V domains shown, substitutions in Kabat numbering) VH: QVQLVQSGGGVVQPGRSLRLSCAASGVSLPDYGVSWVRQAPRKGLEWVAVIWGSETTYYNSALKSRFTISRDNSKNTLYLQMNSLRAEDTAVYYCARHYYYGGSYAMDYWGQGTLVTVSS VL: DIVMTQTPSSLSASVGDRVTITCRASQDISKYLNWYQQKPGKAPKLLIYHTSRLHSGVPSRFSGSGSGTDFTLTISSLQPEDFATYFCQQGNTLPYTFGPGTKVDIKR

[6.05, 3.65]
